# System: hiPSCs trilineage differentiation (cardiomyocytes, hepatocytes, neural rosette-like cells)
# MEASUREMENT_SETUP: human
QUANTITY_NAME: LOAEL compared with respective human therapeutic Cmax

Reference set, count: 5
CC1=C(/C=C/C(C)=C/C=C/C(C)=C\C(=O)O)C(C)(C)CCC1 | equal to or below
O=C1NC(=O)C(c2ccccc2)(c2ccccc2)N1 | equal to or below
NC(=O)c1ncn([C@@H]2O[C@H](CO)[C@@H](O)[C@H]2O)n1 | equal to or below
Cc1nc(Nc2ncc(C(=O)Nc3c(C)cccc3Cl)s2)cc(N2CCN(CCO)CC2)n1 | equal to or below
COc1cc(C)c(/C=C/C(C)=C/C=C/C(C)=C/C(=O)O)c(C)c1C | equal to or below

Provide the reported LOAEL compared with respective human therapeutic Cmax of each entry below, same order.
1. NC(=O)NO [Hydroxyurea]
2. CN(Cc1cnc2nc(N)nc(N)c2n1)c1ccc(C(=O)N[C@@H](CCC(=O)O)C(=O)O)cc1 [Methotrexate]
3. CCCCCCCCc1ccc(CCC(N)(CO)CO)cc1
4. CC1=C(/C=C/C(C)=C/C=C/C(C)=C/C(=O)O)C(C)(C)CCC1 [Tretinoin (Retinoic acid)]
5. Cc1ccc(NC(=O)c2ccc(CN3CCN(C)CC3)cc2)cc1Nc1nccc(-c2cccnc2)n1
6. CC(=O)Oc1ccccc1C(=O)O
7. C=CC[C@@H]1/C=C(\C)C[C@H](C)C[C@H](OC)[C@H]2O[C@@](O)(C(=O)C(=O)N3CCCC[C@H]3C(=O)O[C@H](/C(C)=C/[C@@H]3CC[C@@H](O)[C@H](OC)C3)[C@H](C)[C@@H](O)CC1=O)[C@H](C)C[C@@H]2OC

1: equal to or below; 2: equal to or below; 3: higher; 4: equal to or below; 5: equal to or below; 6: equal to or below; 7: higher

Consider the compound `Nc1ccn([C@@H]2O[C@H](CO)[C@@H](O)[C@@H]2O)c(=O)n1` tested on hiPSCs trilineage differentiation (cardiomyocytes, hepatocytes, neural rosette-like cells); state its LOAEL compared with respective human therapeutic Cmax.
equal to or below
